These entries and their values trace back to patent US20080051393A1.

- target: human CB2 receptor (Homo sapiens, UniProt P34972)
- Sequence (P34972 whole entry): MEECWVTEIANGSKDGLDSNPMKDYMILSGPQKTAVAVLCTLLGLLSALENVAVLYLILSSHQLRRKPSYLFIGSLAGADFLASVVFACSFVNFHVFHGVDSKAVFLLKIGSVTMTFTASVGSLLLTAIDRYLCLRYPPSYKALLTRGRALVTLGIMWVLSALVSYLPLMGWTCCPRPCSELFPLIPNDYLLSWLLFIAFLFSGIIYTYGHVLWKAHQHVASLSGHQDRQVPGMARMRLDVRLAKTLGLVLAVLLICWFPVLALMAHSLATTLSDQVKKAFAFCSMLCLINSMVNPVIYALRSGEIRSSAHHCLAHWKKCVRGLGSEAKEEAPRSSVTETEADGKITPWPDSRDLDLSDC
pKi: −log10 of the molar value.
Decision: pKi >= 7 yields rule met, all other cases yield rule not met.

C[C@H](CO)NC(=O)CCC/C=C\C/C=C\C/C=C\C/C=C\C(C)(C)CCCCn1cncn1 rule not met

**Q:** Hi, just wondering whether `C[C@H](CO)NC(=O)CCC/C=C\C/C=C\C/C=C\C/C=C\C(C)(C)CCCCN1CCCCC1` shows pKi of 7 or higher.
**A:** rule not met

**Q:** Hello, I need to know if `C[C@H](CO)NC(=O)CCC/C=C\C/C=C\C/C=C\C/C=C\C(C)(C)CCCCN1CCCC1` has measured pKi not below 7. Thanks!
**A:** rule not met

**Q:** Would you say `C[C@H](CO)NC(=O)CCC/C=C\C/C=C\C/C=C\C/C=C\C(C)(C)CCCCN1CCOCC1` shows pKi at minimum 7?
**A:** rule met

**Q:** // inclusive: pKi at least 7? input: `C[C@H](CO)NC(=O)CCC/C=C\C/C=C\C/C=C\C/C=C\C(C)(C)CCCCn1cccn1`
**A:** rule not met
